- Test system: UACC-257 melanoma
- measurement_protocol: NCI tumour cell line growth inhibition, 48 h; in the data active means GI50 below about 0.43 µM; inactive means the rest
Your response should consist of one outcome taken from 1 for active, 0 for inactive

INSERT INTO measurements (molecule, category) VALUES
  ('COc1cc2c(/C=C3/C(=O)Nc4cccc(Cl)c43)c(Cl)n(Cc3ccccc3)c2cc1C', 0),
  ('CCCCNC(=O)NS(=O)(=O)c1ccc(N2N=C(c3ccc(C)cc3C)CC2c2ccc(N(C)C)cc2)cc1 (stereo not drawn)', 0);

Hi, do you know how COc1ccc(OC(=O)O[C@H]2[C@H](O[C@H]3[C@@H](O)COC(O[C@H]4C[C@H]5[C@@H]6CC=C7C[C@@H](O)CC[C@]7(C)[C@H]6CC[C@]5(C)[C@H]4[C@H](C)C(=O)CCC(C)C)[C@@H]3OC(C)=O)OC[C@@H](O)[C@@H]2O)cc1 (stereo partly drawn) came out in this test?
1

Value source: PubChem BioAssay (NCI)
